Test system: MCF7/hPRLR (MCF7/PRLR) cells
Protocol: Cell viability (cell kill) assay, nuclear counts
Type: cell-based, human
Reported Conditions: Table 12, 3 days
Experimental Endpoint: IC50
// unit must come after the numeric part

See these solved cases before continuing.
molecule="H1H6959N2-DM1 (conjugate) VH: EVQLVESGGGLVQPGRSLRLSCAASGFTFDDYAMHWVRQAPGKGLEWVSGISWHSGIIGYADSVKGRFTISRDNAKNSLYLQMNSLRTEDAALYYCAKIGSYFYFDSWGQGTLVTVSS VL: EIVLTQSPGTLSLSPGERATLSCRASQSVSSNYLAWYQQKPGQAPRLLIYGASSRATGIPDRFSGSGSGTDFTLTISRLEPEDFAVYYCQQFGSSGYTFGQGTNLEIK" observed_measurement="0.47 nM"
molecule="H1H6800P-DM1 (conjugate) VH: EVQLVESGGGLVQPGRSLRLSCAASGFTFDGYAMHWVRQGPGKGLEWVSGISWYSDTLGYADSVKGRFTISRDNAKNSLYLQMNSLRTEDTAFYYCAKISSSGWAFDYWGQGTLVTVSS VL: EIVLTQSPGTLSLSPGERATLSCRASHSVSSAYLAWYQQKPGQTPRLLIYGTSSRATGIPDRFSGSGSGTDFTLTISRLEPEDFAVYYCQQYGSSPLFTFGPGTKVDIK" observed_measurement="0.4 nM"

Which IC50 is reported for this molecule? H1H6953N-DM1 (conjugate) VH: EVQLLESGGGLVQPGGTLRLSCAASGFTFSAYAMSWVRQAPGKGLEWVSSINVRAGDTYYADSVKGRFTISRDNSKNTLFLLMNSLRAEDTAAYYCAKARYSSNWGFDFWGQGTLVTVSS VL: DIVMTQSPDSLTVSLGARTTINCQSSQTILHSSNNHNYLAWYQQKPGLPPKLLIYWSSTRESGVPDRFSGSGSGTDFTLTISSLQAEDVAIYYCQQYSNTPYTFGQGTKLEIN 0.29 nM
